# Test system: A498;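 further: growth inhibition of human A498 cells, read out with a cell viability assay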
# measurement notes: cells
# Format: functional, cell-based, Homo sapiens
# measurement setup: Homo sapiens, A498
# Description: SANGER: Inhibition of human A498 cell growth in a cell viability assay.
endpoint label: IC50

Which value of IC50 has been reported for Cc1ccc(C(=O)Nc2ccc(CN3CCN(C)CC3)c(C(F)(F)F)c2)cc1C#Cc1cnc2cccnn12 in the records?
> 0.512 µM

Which value of IC50 has been reported for Cc1cc(N2CCOCC2)cc2[nH]c(-c3c(NC[C@@H](O)c4cccc(Cl)c4)cc[nH]c3=O)nc12 in the records?
> 5.12 µM

Which value of IC50 has been reported for NC1(c2ccc(-c3nc4ccn5c(=O)[nH]nc5c4cc3-c3ccccc3)cc2)CCC1 in the records?
> 4 µM

Which value of IC50 has been reported for NC(=O)c1ccc(N(C(N)=O)c2c(F)cccc2F)nc1-c1ccc(F)cc1F in the records?
> 2 µM

Which value of IC50 has been reported for CC1(C)CCC(c2ccc(Cl)cc2)=C(CN2CCN(c3ccc(C(=O)NS(=O)(=O)c4ccc(N[C@H](CCN5CCOCC5)CSc5ccccc5)c(S(=O)(=O)C(F)(F)F)c4)cc3)CC2)C1 in the records?
> 2 µM

###

# Test system: T84;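 further: growth inhibition measured with a cell viability readout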
# measurement notes: cells
# Assay type: functional, cell-based
# measurement setup: Homo sapiens
# Description: SANGER: Inhibition of human T84 cell growth in a cell viability assay.
pIC50: −log10 of the molar value.
endpoint label: pIC50

Which value of pIC50 has been reported for O=C1NC(=O)c2c1c(-c1ccccc1Cl)cc1[nH]c3ccc(O)cc3c21 in the records?
< 5.70

Which value of pIC50 has been reported for NC1(c2ccc(-c3nc4ccn5c(=O)[nH]nc5c4cc3-c3ccccc3)cc2)CCC1 [MK-2206] in the records?
< 5.40

Which value of pIC50 has been reported for O=C(NCCCNc1nc(Nc2cccc(NC(=O)N3CCCC3)c2)ncc1I)c1cccs1 [BX-795] in the records?
< 5.30

Which value of pIC50 has been reported for CS(=O)(=O)N1CCN(Cc2cc3nc(-c4cccc5[nH]ncc45)nc(N4CCOCC4)c3s2)CC1 [PICTILISIB] in the records?
< 5.40

Which value of pIC50 has been reported for O=S(=O)(O)c1ccc2cc(/N=N/c3cc(S(=O)(=O)O)c4cccnc4c3O)ccc2c1 in the records?
< 4.80

Which value of pIC50 has been reported for CC1(C)CCC(c2ccc(Cl)cc2)=C(CN2CCN(c3ccc(C(=O)NS(=O)(=O)c4ccc(N[C@H](CCN5CCOCC5)CSc5ccccc5)c(S(=O)(=O)C(F)(F)F)c4)cc3)CC2)C1 [NAVITOCLAX] in the records?
< 5.70

Which value of pIC50 has been reported for CN(C)CCOc1ccc(-c2nc(-c3ccncc3)c(-c3ccc4c(c3)CC/C4=N\O)[nH]2)cc1 [SB590885] in the records?
< 5.30

Which value of pIC50 has been reported for CC1=C(/C=C/C(C)=C/C=C/C(C)=C/C(=O)O)C(C)(C)CCC1 [TRETINOIN] in the records?
< 5.00

###

Answer each item with its documented pIC50.
# Test system: COR-L105;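 further: cell growth inhibition determined with a viability assay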
# measurement notes: cells
# Type: functional, cell-based
# measurement setup: Homo sapiens
# Description: SANGER: Inhibition of human COR-L105 cell growth in a cell viability assay.
pIC50: −log10 of the molar value.

Which value of pIC50 has been reported for CN(C)CCOc1ccc(-c2nc(-c3ccncc3)c(-c3ccc4c(c3)CC/C4=N\O)[nH]2)cc1 in the records?
< 5.30

Which value of pIC50 has been reported for NC1(c2ccc(-c3nc4ccn5c(=O)[nH]nc5c4cc3-c3ccccc3)cc2)CCC1 in the records?
5.75

Which value of pIC50 has been reported for NC(=O)Nc1cc(-c2cccc(F)c2)sc1C(=O)N[C@H]1CCCNC1 in the records?
6.65

Which value of pIC50 has been reported for COC(=O)[C@H](CCSC)NC(=O)c1ccc(NC[C@@H](N)CS)cc1-c1ccccc1 in the records?
< 5.99

Which value of pIC50 has been reported for Cc1ccc(-n2nc(C(C)(C)C)cc2NC(=O)Nc2ccc(OCCN3CCOCC3)c3ccccc23)cc1 in the records?
< 5.00

Which value of pIC50 has been reported for C/C(=C\c1csc(C)n1)[C@@H]1C[C@@H]2O[C@]2(C)CCC[C@H](C)[C@H](O)[C@@H](C)C(=O)C(C)(C)[C@@H](O)CC(=O)O1 in the records?
8.02

Which value of pIC50 has been reported for O=C1NC(=O)c2c1c(-c1ccccc1Cl)cc1[nH]c3ccc(O)cc3c21 in the records?
< 5.70

Which value of pIC50 has been reported for O=S(=O)(O)c1ccc2cc(/N=N/c3cc(S(=O)(=O)O)c4cccnc4c3O)ccc2c1 in the records?
< 4.80

Which value of pIC50 has been reported for CC1=C(/C=C/C(C)=C/C=C/C(C)=C/C(=O)O)C(C)(C)CCC1 in the records?
< 5.00
